Test: protein stability index of a GFP-peptide fusion (GPS, HEK-293T) (PSI 1-6); higher = more stable;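 further: 24-mer peptide tiles fused after GFP, lentivirally expressed, FACS-sorted into six equal bins by GFP/DsRed ratio, decoded by Illumina sequencing, PSI is the read-weighted mean bin number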
Conditions: treatment: DMSO; c terminus: a fixed tail appended
endpoint_label: protein stability index
No unit in the answer, only the number.

> print(dat)
                   primary.sequence  observed.measurement
1  HASSYISPEKEEQYIAQFTSQFLS [PRAME]                  3.06

Find the recorded protein stability index belonging to VGSLSWLRKQLQPTHCKYEGPRKA and report it.
2.87

Find the recorded protein stability index belonging to RLDGCIYAIKRSKKPLAGSVDEQN [WEE1] and report it.
3.54

Find the recorded protein stability index belonging to CEMDWSDKMEAYNIDETCGRHHSQ [TEKT4] and report it.
4.53

Find the recorded protein stability index belonging to LLPLTELSVCPLEGSREHAFQITG [PLEKHN1] and report it.
2.88

Find the recorded protein stability index belonging to VSKVTGWCRDRLLGHREPSAHPVE [TMEM175] and report it.
3.21

Find the recorded protein stability index belonging to DFDYNAIDNANRILGPAYFVTYVF [PKD2L1] and report it.
2.73

----------
Reported protein stability index values follow for various sequences
Test: protein stability index of a GFP-peptide fusion (GPS, HEK-293T) (PSI 1-6); higher = more stable
Conditions: treatment: MLN4924 1 uM, 8 h; c terminus: a fixed tail appended
No unit in the answer, only the number.

Here is how some sequences turned out for protein stability index.
> print(dat)
                     primary.sequence  observed.measurement
1   GGQEEASQEAGLPAGAGPSPTFPA [SEPHS2]                  5.25
2  LRSFCAWQRGLNTPEDSDPDHFDT [ADAMTS4]                  4.24
3     SLEHVQLFDLMRRMLEFDPAQRIT [CLK3]                  2.07
4    RGVPLLEWETEVEMDKLRASDIME [CLCN6]                   4.3
5     SQSLALKEQNNLKQLEFGLKEAPV [ZNF8]                  4.44
6    MWLLVSVILISRISSVGGEAMFCD [CFHR2]                  3.08
7     VGSDDLERIEARLATLEGDDPSLR [PSD2]                  5.42
8    TGEDVKVILKNSQGEEVAQRSTVF [LMNB1]                  4.64

Find the recorded protein stability index belonging to LCEEFRNRNQRIVQLIQDTRIHIL [CPN1] and report it.
2.4

Find the recorded protein stability index belonging to QCRERREHPNLVRDHVETELLKEA [TEKT4] and report it.
4.97

Find the recorded protein stability index belonging to QENAIQTMELRNYFSLYCLHQETQ [SNX8] and report it.
2.52

Find the recorded protein stability index belonging to LYELASLKRAFEAANLPALVLKIM [NEK8] and report it.
2.12

Find the recorded protein stability index belonging to EKTNGATPLLMAARYGHLDMVEFL [FEM1C] and report it.
3.05

----------
Reported protein stability index values follow for various sequences
Experiment: protein stability index of a GFP-peptide fusion (GPS, HEK-293T) (PSI 1-6); higher = more stable
Conditions: treatment: MLN4924 1 uM, 8 h; c terminus: native
No unit in the answer, only the number.

Here is how some sequences turned out for protein stability index.
> print(dat)
                     primary.sequence  observed.measurement
1    DFLETPELTSTMLVPASWWILNN [NECAB1]                  2.18
2    STTDLRGTQFDYERGKGESTEDR [ZSWIM9]                  5.43
3     RETLIIAVLVSASIANLWLWMNQ [FATE1]                  2.31
4  RGRHEQSPTSRPRKVSSLPPRSC [C22orf15]                   3.5
5     VVEEELFHQQGTPRASNRSCAIM [LMNB1]                  3.16
6    TCSICRRNFSRRSSLLRHQKLHL [ZNF75A]                  4.06

Find the recorded protein stability index belonging to KISGGPHISYPPLHEWVLREGEE [MAGEA3] and report it.
3.33

Find the recorded protein stability index belonging to VGPLAQDPQSPMAGLRWLDSWDF [POMT2] and report it.
3.36

Find the recorded protein stability index belonging to NALLSKRLLALTSSDLGCQPSRT [TMEM192] and report it.
2.61

----------
Experiment: protein stability index of a GFP-peptide fusion (GPS, HEK-293T) (PSI 1-6); higher = more stable
Conditions: treatment: MLN4924 1 uM, 8 h; c terminus: a fixed tail appended
protein stability index of 3 or higher: Criterion met. Under 3: Criterion not met.

> print(dat)
                  primary.sequence  qualitative.label
1  ISKNKKKASNSIISCFNNAPPAKL [FAN1]  Criterion not met

Check if protein stability index >= 3 (inclusive). Item: LFDLMRRMLEFDPAQRITLAEALL [CLK3]
Criterion not met

----------
Assay: protein stability index of a GFP-peptide fusion (GPS, HEK-293T) (PSI 1-6); higher = more stable
Conditions: treatment: DMSO; c terminus: a fixed tail appended
Reported protein stability index values follow for various sequences

> print(dat)
                      primary.sequence           endpoint.label  observed.measurement
1  WESSAGGSFTVRADHGEPIGRGTK [HSP90AB1]  protein stability index                  4.83
2      YFAIKQEVVTPDNMCMGRTSRGKL [ETS1]  protein stability index                   3.5
3     FDPAEKYKMDHRRRGIALIFNHER [CASP6]  protein stability index                  2.89
4    DPLSTNYSLAPNTPINQNVSLHQA [NFE2L1]  protein stability index                  4.25

Find the recorded protein stability index belonging to PFRGDEGIFEESFIEERRQGLEQF [SNX12] and report it.
4.52

Find the recorded protein stability index belonging to QLTCFSITCSSTMSYSCCLPSLGC [KRT34] and report it.
3.04

Find the recorded protein stability index belonging to TRSHLWEAAQVVPDGLGLDEAREE [TRIB3] and report it.
5.13

----------
Assay: protein stability index of a GFP-peptide fusion (GPS, HEK-293T) (PSI 1-6); higher = more stable
Conditions: treatment: MLN4924 1 uM, 8 h; c terminus: a fixed tail appended
endpoint_label: protein stability index
No unit in the answer, only the number.

Here is how some sequences turned out for protein stability index.
> print(dat)
                    primary.sequence           endpoint.label  observed.measurement
1  SPELGRPHDRSQGDWAPPPEGGME [ZNF263]  protein stability index                  5.41
2   HDSVVEMIRKGGDQTSLLVVDKET [PDZK1]  protein stability index                  4.76
3  LALCPANHAPLREQGAIPRLVQLL [CTNNB1]  protein stability index                  2.59
4  ETEDVDYGETDFHKQDGKAGLFSQ [TMEM40]  protein stability index                  5.36
5  PGAGLRRPTYTPPSIMPQKHWVYV [ZBTB22]  protein stability index                  2.04
6   SLLDVAEPGGPGWLPESDCETVTC [SMAD6]  protein stability index                  4.74
7     ILNLKKKECKDRGFEYDGKINAWD [NLN]  protein stability index                  3.43
8   DVQLGDIILTATDGLFDNMPDYMI [PPTC7]  protein stability index                  2.62

Find the recorded protein stability index belonging to TNDVETARCTAGTLHNLSHHREGL [CTNNB1] and report it.
4.07

Find the recorded protein stability index belonging to SMRKIVATWMLEVCEEQKCEEEVF [CCND1] and report it.
2.47

Find the recorded protein stability index belonging to TKHIHITQATETTTTRHKRTANPS [CLINT1] and report it.
4.77

Find the recorded protein stability index belonging to MLFFLPPGQHLSDYSQLNESTTKE [FBXO34] and report it.
2.61

Find the recorded protein stability index belonging to LDEALKHVKETQPPETVQNWIELL [GOLPH3] and report it.
4.17

Find the recorded protein stability index belonging to PGKKKIRWDPVRRRFIQSCPIIRI [KLHDC10] and report it.
2.1

----------
Assay: protein stability index of a GFP-peptide fusion (GPS, HEK-293T) (PSI 1-6); higher = more stable
Conditions: treatment: DMSO; c terminus: a fixed tail appended
I'd appreciate it if you could label each record using protein stability index and these ranges: low bin: < 3; mid bin: ≥ 3 and < 4; high bin: ≥ 4

Use these answered entries as a reference point.
> print(dat)
                    primary.sequence  qualitative.label
1   FNDVAKFLKQGDSADETTAHKTEE [CMTM3]           high bin
2  GEDQWNPNGKHSTNFVSRYDPRFN [KLHL14]            mid bin
3    QHYFYDYDCGEDFYRSTAPSEDIW [MYCL]            low bin
4  RLQELCHGWLRPEMRTKEQILELL [ZNF263]            low bin
5    KAQAKVGSLDNAHHVPGGGNVKID [MAP2]           high bin
6   KKAQGKTQQNRKLTDFYPVRRSSR [KMT5A]            mid bin
7   SWMCTRSGNMLGRHFFTSWASCLQ [WDFY1]            low bin
8    PSGEMVKSTTSLTSSSTSGSSDKV [MLH1]           high bin

Textbook exercise: identify the category of the sequence given here, YTFVPWLLSFKRGSALEEKENKIL [TNFSF13B] , according to its measured value.
low bin

Textbook exercise: identify the category of the sequence given here, HGEADRSTLKKALPTLSHIQEAQS [YJU2B] , according to its measured value.
high bin

Textbook exercise: identify the category of the sequence given here, LGSGQFAIVRKCRQKGTGKEYAAK [DAPK3] , according to its measured value.
mid bin

Textbook exercise: identify the category of the sequence given here, AGALLRLPSERLDFSMAEALNQEF [PRPH] , according to its measured value.
mid bin
